Test system: Pyricularia oryzae
Experiment: microbe, parasite or virus in culture
Assay type: cell-based
Conditions: Pyricularia oryzae, 72 h, read-out: Percent Fungus Growth Inhibition, PO, 20 ppm, 72 hours
Given measured inhibition at 20 ppm, output satisfied if it is greater than or equal to 50% and not satisfied if not.

1. COc1ccc(Oc2nsnc(Cl)c2=O)cc1 [Compound 5] ... not satisfied
2. CC(=O)Nc1ccc(Oc2nsnc(Cl)c2=O)cc1 [Compound 8] ... not satisfied
3. CS(=O)(=O)c1ccc(Oc2nsnc(Cl)c2=O)cc1 [Compound 41] ... satisfied
4. Cc1ccc(Cl)c(Oc2nsnc(Cl)c2=O)c1 [Compound 56] ... satisfied
5. Cc1cccc(C)c1Oc1nsnc(Cl)c1=O [Compound 24] ... satisfied
6. O=C(Nc1ccccc1)Nc1ccc(Oc2nsnc(Cl)c2=O)cc1 [Compound 29] ... not satisfied

(Q) Record O=c1c(Cl)nsnc1Oc1ccc(Cl)c(Cl)c1 [Compound 16] ; criterion: inhibition at 20 ppm no lower than 50%. Met?
(A) not satisfied

Taken from patent US4450269A.
